Reference for the values: the NIST ThermoML archive (doi:10.1021/je201289w)

Listed here: items and their measured mass density.
- Conditions: 303.15 K; 101.33 kPa; Liquid; Vibrating tube method
Unit kg/m3 implied. Number only.

CCCCn1cc[n+](C)c1.O=S(=O)([N-]S(=O)(=O)C(F)(F)C(F)(F)C(F)(F)C(F)(F)F)C(F)(F)C(F)(F)C(F)(F)C(F)(F)F :: 1605

Query: # input compound: CCOS(=O)(=O)[O-].CCn1cc[n+](C)c1 [1-ethyl-3-methylimidazolium ethyl sulfate] ; wanted: its mass density
Reply: 1234.3

Query: Next up: `CCC[N+]1(C)CCCC1.O=S(=O)([N-]S(=O)(=O)C(F)(F)F)C(F)(F)F`
Reply: 1422.8

Query: Next up: CCn1cc[n+](C)c1.N#C[B-](C#N)(C#N)C#N [1-ethyl-3-methylimidazolium tetracyanoborate]
Reply: 1024.9

Query: Next up: CCn1cc[n+](C)c1.F[B-](F)(F)F [1-ethyl-3-methylimidazolium tetrafluoroborate]
Reply: 1276.7

Query: Next up: CCn1cc[n+](C)c1.N#CN=C=[N-] [1-ethyl-3-methylimidazolium dicyanamide]
Reply: 1097.9

Query: Next up: CCn1cc[n+](C)c1.N#C[S-] [1-ethyl-3-methylimidazolium thiocyanate]
Reply: 1112.4

Query: Next up: `CCn1cc[n+](C)c1.O=S(=O)([N-]S(=O)(=O)C(F)(F)F)C(F)(F)F`
Reply: 1513.4

====

- Assay Overview: refractive index (Na D-line) (dimensionless)
- Conditions: 303.15 K; 101.33 kPa; Liquid; Standard Abbe refractometry
Listed here: items and their measured refractive index.
Output spec: single numeric token, no unit.

CCCCn1cc[n+](C)c1.O=S(=O)([N-]S(=O)(=O)C(F)(F)C(F)(F)C(F)(F)C(F)(F)F)C(F)(F)C(F)(F)C(F)(F)C(F)(F)F :: 1.38662
CCn1cc[n+](C)c1.CS(=O)(=O)[O-] [1-ethyl-3-methylimidazolium methanesulfonate] :: 1.49444
CCC[N+]1(C)CCCC1.O=S(=O)([N-]S(=O)(=O)C(F)(F)F)C(F)(F)F :: 1.41925
CCn1cc[n+](C)c1.O=S(=O)([N-]S(=O)(=O)C(F)(F)F)C(F)(F)F :: 1.42166

Query: # input molecule: CCOS(=O)(=O)[O-].CCn1cc[n+](C)c1 [1-ethyl-3-methylimidazolium ethyl sulfate] ; wanted: its refractive index
Reply: 1.47789

====

- Conditions: 338.15 K; 101.33 kPa; Liquid; Vibrating tube method
Listed here: items and their measured mass density.
Unit kg/m3 implied. Number only.

# annotated cases, reported mass density shown
CCn1cc[n+](C)c1.N#C[S-] [1-ethyl-3-methylimidazolium thiocyanate] :: 1091.4
CCn1cc[n+](C)c1.O=S(=O)([N-]S(=O)(=O)C(F)(F)F)C(F)(F)F :: 1478.5

Query: # input compound: `CCC[N+]1(C)CCCC1.O=S(=O)([N-]S(=O)(=O)C(F)(F)F)C(F)(F)F` ; wanted: its mass density
Reply: 1391.6

====

- Conditions: 283.15 K; 101.33 kPa; Liquid; Vibrating tube method
Experimental Readout: mass density (kg/m3)
Unit kg/m3 implied. Number only.

# annotated cases, reported mass density shown
CCCCn1cc[n+](C)c1.O=S(=O)([N-]S(=O)(=O)C(F)(F)C(F)(F)C(F)(F)C(F)(F)F)C(F)(F)C(F)(F)C(F)(F)C(F)(F)F :: 1629.5
CCn1cc[n+](C)c1.N#CN=C=[N-] [1-ethyl-3-methylimidazolium dicyanamide] :: 1111.4

Alright, here's another molecule for you.
Query: # input molecule: CCOS(=O)(=O)[O-].CCn1cc[n+](C)c1 [1-ethyl-3-methylimidazolium ethyl sulfate] ; wanted: its mass density
Reply: 1247.7
